Test target: PI3 Kinase γ (Homo sapiens)
Sequence (P48736 whole entry): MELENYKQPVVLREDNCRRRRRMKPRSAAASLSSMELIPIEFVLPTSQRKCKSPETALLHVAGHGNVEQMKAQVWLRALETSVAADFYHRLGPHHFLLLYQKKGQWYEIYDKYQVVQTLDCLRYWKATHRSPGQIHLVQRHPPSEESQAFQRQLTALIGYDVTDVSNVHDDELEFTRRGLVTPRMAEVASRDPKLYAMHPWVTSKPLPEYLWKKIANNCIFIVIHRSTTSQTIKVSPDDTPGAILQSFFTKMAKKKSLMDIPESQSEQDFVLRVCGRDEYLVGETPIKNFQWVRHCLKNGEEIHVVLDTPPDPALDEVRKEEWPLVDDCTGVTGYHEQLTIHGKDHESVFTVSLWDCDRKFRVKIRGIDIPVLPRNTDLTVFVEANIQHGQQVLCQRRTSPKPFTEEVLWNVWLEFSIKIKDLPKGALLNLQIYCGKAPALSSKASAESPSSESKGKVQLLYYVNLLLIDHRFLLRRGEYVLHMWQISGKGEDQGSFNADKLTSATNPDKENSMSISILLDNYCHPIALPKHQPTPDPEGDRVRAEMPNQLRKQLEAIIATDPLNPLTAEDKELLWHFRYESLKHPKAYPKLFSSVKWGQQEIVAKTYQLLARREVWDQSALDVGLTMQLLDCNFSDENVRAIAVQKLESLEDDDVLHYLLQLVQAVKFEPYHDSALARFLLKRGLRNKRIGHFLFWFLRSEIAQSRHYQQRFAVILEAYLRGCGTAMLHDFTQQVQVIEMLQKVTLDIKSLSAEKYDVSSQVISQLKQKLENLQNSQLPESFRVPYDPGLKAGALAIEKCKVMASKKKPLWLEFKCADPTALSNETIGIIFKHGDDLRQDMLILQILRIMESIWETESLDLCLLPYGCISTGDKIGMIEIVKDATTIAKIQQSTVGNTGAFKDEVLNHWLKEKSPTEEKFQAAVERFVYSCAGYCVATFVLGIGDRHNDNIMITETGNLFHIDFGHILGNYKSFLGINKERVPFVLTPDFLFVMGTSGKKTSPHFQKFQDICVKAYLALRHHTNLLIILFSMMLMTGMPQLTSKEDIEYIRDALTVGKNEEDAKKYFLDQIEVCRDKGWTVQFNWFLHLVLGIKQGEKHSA
pIC50: −log10 of the molar value.
Below, each entry is listed alongside its reported pIC50.
Reported endpoint: pIC50

>  <Structure smiles>
OCc1cncc(-c2nc(N3CCOCC3)c3nnn(C4CCNCC4)c3n2)c1

>  <Observed>
6.02

$$$$
>  <Structure smiles>
CCn1nnc2c(N3CCOCC3)nc(-c3ccc(NC(=O)Nc4ccc(C(=O)N5CCNC(C)(C)C5)cc4)cc3)nc21

>  <Observed>
8.15

$$$$
>  <Structure smiles>
COc1ccc(NC(=O)Nc2ccc(-c3nc(N4CCOCC4)c4nnn(C(C)C)c4n3)cc2)cc1

>  <Observed>
7.40

$$$$
>  <Structure smiles>
OCc1cccc(-c2nc(N3CCOCC3)c3nnn(CCCN4CCCC4)c3n2)c1

>  <Observed>
6.81

$$$$

----------
Reported IC50 values, UniProt:P42336.
Sequence (P42336 whole entry): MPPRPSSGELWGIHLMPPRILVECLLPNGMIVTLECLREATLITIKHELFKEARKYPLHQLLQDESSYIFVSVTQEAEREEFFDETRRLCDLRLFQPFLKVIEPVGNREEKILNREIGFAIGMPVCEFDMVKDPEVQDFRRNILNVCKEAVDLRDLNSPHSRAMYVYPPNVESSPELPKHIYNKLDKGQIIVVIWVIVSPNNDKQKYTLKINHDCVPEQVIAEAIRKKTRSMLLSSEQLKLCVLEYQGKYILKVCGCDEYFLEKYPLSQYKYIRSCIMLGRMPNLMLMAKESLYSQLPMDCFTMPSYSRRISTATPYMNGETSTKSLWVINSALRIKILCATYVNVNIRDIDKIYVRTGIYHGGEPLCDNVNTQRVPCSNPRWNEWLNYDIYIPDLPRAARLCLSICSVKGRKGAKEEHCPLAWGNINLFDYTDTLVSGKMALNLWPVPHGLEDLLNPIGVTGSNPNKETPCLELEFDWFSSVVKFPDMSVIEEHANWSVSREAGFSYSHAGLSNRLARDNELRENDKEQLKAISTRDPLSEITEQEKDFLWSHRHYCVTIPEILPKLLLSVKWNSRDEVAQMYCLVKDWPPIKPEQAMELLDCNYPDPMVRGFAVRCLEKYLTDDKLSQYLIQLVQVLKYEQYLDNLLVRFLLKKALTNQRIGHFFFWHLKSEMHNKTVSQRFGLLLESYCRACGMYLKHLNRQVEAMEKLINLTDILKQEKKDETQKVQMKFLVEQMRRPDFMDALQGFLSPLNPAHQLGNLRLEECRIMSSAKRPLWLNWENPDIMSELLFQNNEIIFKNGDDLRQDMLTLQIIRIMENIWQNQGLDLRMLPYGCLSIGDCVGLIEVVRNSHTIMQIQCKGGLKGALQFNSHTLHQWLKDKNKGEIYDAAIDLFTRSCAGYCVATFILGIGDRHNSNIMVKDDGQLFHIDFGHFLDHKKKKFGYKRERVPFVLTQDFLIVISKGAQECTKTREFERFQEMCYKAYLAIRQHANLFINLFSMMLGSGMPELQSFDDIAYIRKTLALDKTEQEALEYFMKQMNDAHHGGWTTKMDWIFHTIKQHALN
Sequence (P27986 whole entry partner): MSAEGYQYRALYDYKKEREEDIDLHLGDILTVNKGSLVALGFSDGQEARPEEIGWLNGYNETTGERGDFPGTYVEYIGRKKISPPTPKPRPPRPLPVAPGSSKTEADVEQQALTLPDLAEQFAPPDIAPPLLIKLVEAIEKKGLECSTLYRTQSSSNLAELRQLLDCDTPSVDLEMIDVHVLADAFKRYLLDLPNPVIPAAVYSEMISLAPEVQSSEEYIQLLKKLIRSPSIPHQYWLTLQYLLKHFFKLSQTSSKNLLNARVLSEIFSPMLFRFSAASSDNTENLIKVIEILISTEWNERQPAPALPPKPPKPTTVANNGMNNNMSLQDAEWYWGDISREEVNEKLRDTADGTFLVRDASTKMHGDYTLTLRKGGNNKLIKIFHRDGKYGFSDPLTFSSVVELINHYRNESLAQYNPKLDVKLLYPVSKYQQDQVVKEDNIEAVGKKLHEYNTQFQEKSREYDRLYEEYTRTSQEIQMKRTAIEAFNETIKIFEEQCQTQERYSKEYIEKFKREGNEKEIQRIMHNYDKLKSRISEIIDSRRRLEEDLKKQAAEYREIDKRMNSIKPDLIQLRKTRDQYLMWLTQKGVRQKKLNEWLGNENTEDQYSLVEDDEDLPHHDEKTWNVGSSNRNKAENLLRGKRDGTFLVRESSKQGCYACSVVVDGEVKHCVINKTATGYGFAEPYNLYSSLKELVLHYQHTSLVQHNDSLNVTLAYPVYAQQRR

>  <Molecule>
CC(C)(C)OC(=O)N1CC(Cn2nnc3c(N4CCOCC4)nc(-c4ccc(NC(=O)Nc5ccccc5)cc4)nc32)C1 [Example 188]

>  <Sign qualifier>
=

>  <IC50, nM>
19.5

$$$$
>  <Molecule>
Oc1cccc(-c2nc(N3CCOCC3)c3nnn(CCN4CCN(C5CCCCC5)CC4)c3n2)c1 [Example 106]

>  <Sign qualifier>
=

>  <IC50, nM>
556

$$$$
>  <Molecule>
Cn1nnc2c(N3CCOCC3)nc(-c3ccc(NC(=O)Nc4ccsc4)cc3)nc21 [Example 201]

>  <Sign qualifier>
=

>  <IC50, nM>
4.5

$$$$
>  <Molecule>
CCn1nnc2c(N3CCOC[C@@H]3C)nc(-c3ccc(NC(=O)Nc4cccnc4)cc3)nc21 [Example 72]

>  <Sign qualifier>
=

>  <IC50, nM>
8

$$$$
>  <Molecule>
CCn1nnc2c(N3CCOCC3)nc(-c3ccc(NC(=O)Nc4ccc(C(=O)N(C)CCNC)cc4)cc3)nc21 [Example 52]

>  <Sign qualifier>
<

>  <IC50, nM>
1.9

$$$$
>  <Molecule>
CN(C)CCNC(=O)Nc1ccc(-c2nc(N3CCOCC3)c3nnn(C4CCN(Cc5ccc(Cl)cc5F)CC4)c3n2)cc1 [Example 156]

>  <Sign qualifier>
=

>  <IC50, nM>
170

$$$$
>  <Molecule>
CCn1nnc2c(N3CCOCC3)nc(-c3ccc(NC(=O)Nc4ccc(C(=O)N(C)C)cc4)cc3)nc21 [Example 61]

>  <Sign qualifier>
=

>  <IC50, nM>
1.6

$$$$
>  <Molecule>
CCn1nnc2c(N3CCOC[C@@H]3C)nc(-c3ccc(NC(=O)Nc4cccs4)cc3)nc21 [Example 69]

>  <Sign qualifier>
=

>  <IC50, nM>
8.5

$$$$
>  <Molecule>
Cn1nnc2c(N3CCOCC3)nc(-c3ccc(NC(=O)Nc4cccs4)cc3)nc21 [Example 200]

>  <Sign qualifier>
=

>  <IC50, nM>
6.5

$$$$
>  <Molecule>
CC(C)n1nnc2c(N3CCOCC3)nc(-c3ccc(NC(=O)Nc4ccc(C(N)=O)cc4)cc3)nc21 [Example 93]

>  <Sign qualifier>
=

>  <IC50, nM>
2.5

$$$$
>  <Molecule>
CCn1nnc2c(N3CCOCC3)nc(-c3ccc(NC(=O)Nc4nccs4)cc3)nc21 [Example 37]

>  <Sign qualifier>
=

>  <IC50, nM>
73.5

$$$$
>  <Molecule>
COc1ccc(NC(=O)Nc2ccc(-c3nc(N4CCOCC4)c4nnn(C(C)C)c4n3)cc2)cc1 [Example 89]

>  <Sign qualifier>
=

>  <IC50, nM>
15.5

$$$$
>  <Molecule>
O=C(NCCc1ccccc1)c1ccc(Cn2nnc3c(N4CCOCC4)nc(-c4cccc(O)c4)nc32)cc1 [Example 223]

>  <Sign qualifier>
=

>  <IC50, nM>
175

$$$$
>  <Molecule>
CN(C)CCNC(=O)Nc1ccc(-c2nc(N3CCOCC3)c3nnn(C4CCN(Cc5cccnc5)CC4)c3n2)cc1 [Example 154]

>  <Sign qualifier>
=

>  <IC50, nM>
206

$$$$
>  <Molecule>
Nc1ccc(-c2nc(N3CCOCC3)c3nnn(C4CC4)c3n2)cc1 [Example 77]

>  <Sign qualifier>
=

>  <IC50, nM>
1840

$$$$
>  <Molecule>
Oc1cccc(-c2nc(N3CCOCC3)c3nnn(CCN4CCN(Cc5ccco5)CC4)c3n2)c1 [Example 113]

>  <Sign qualifier>
=

>  <IC50, nM>
726

$$$$
>  <Molecule>
CCn1nnc2c(N3CCOC[C@@H]3C)nc(-c3ccc(NC(=O)Nc4ccncc4)cc3)nc21 [Example 71]

>  <Sign qualifier>
=

>  <IC50, nM>
7

$$$$
>  <Molecule>
CN(C)CCCOc1ccc(CN2CCC(n3nnc4c(N5CCOCC5)nc(-c5cccc(O)c5)nc43)CC2)cc1 [Example 146]

>  <Sign qualifier>
=

>  <IC50, nM>
13

$$$$
>  <Molecule>
CC(=O)NCCn1nnc2c(N3CCOCC3)nc(-c3cccc(CO)c3)nc21 [Example 8]

>  <Sign qualifier>
=

>  <IC50, nM>
86

$$$$
>  <Molecule>
O=C(Nc1ccc(F)cc1)c1ccc(Cn2nnc3c(N4CCOCC4)nc(-c4cccc(O)c4)nc32)cc1 [Example 217]

>  <Sign qualifier>
=

>  <IC50, nM>
240

$$$$
>  <Molecule>
CC(C)(C)OC(=O)N1CC(n2nnc3c(N4CCOCC4)nc(-c4ccc(NC(=O)Nc5cccnc5)cc4)nc32)C1 [Example 130]

>  <Sign qualifier>
=

>  <IC50, nM>
34

$$$$
>  <Molecule>
CC(C)n1nnc2c(N3CCOCC3)nc(-c3ccc(N)cc3)nc21 [Example 81]

>  <Sign qualifier>
=

>  <IC50, nM>
1030

$$$$
>  <Molecule>
O=C(O)Cn1nnc2c(N3CCOCC3)nc(-c3cccc(O)c3)nc21 [Example 245]

>  <Sign qualifier>
=

>  <IC50, nM>
298

$$$$
>  <Molecule>
O=C(Nc1ccc(-c2nc(N3CCOCC3)c3nnn(C4CC4)c3n2)cc1)Nc1cccnc1 [Example 79]

>  <Sign qualifier>
=

>  <IC50, nM>
7

$$$$
>  <Molecule>
OCc1cccc(-c2nc(N3CCOCC3)c3nnn(C4CCN(Cc5ccccc5)CC4)c3n2)c1 [Example 177]

>  <Sign qualifier>
=

>  <IC50, nM>
83.5

$$$$
>  <Molecule>
CC(=O)NCCNC(=O)c1ccc(Cn2nnc3c(N4CCOCC4)nc(-c4cccc(O)c4)nc32)cc1 [Example 210]

>  <Sign qualifier>
=

>  <IC50, nM>
692

$$$$
>  <Molecule>
Oc1cccc(-c2nc(N3CCOCC3)c3nnn(C4CCN(Cc5ccccn5)CC4)c3n2)c1 [Example 149]

>  <Sign qualifier>
=

>  <IC50, nM>
67

$$$$
>  <Molecule>
CCN1CCCC1CNC(=O)Nc1ccc(-c2nc(N3CCOCC3)c3nnn(C(C)C)c3n2)cc1 (stereo not shown) [Example 92]

>  <Sign qualifier>
=

>  <IC50, nM>
149

$$$$
>  <Molecule>
CCn1nnc2c(N3CCOCC3)nc(-c3ccc(NC(=O)NC4CCN(C(=O)OCc5ccccc5)CC4)cc3)nc21 [Example 65]

>  <Sign qualifier>
=

>  <IC50, nM>
5630

$$$$
>  <Molecule>
O=C(Cn1nnc2c(N3CCOCC3)nc(-c3cccc(CO)c3)nc21)Nc1cccnc1 [Example 235]

>  <Sign qualifier>
=

>  <IC50, nM>
637

$$$$
>  <Molecule>
O=C(c1ccc(Cn2nnc3c(N4CCOCC4)nc(-c4cccc(O)c4)nc32)cc1)N1CCN(c2ccccc2)CC1 [Example 229]

>  <Sign qualifier>
=

>  <IC50, nM>
286

$$$$

Where do the numbers come from? From patent US20090181963A1.
